test: Quantitative High-Throughput drug screen in 47 multiple myeloma cell lines against the NCATS MIPE library collection: KHM11_PLB cell viability assay (AID 1918962); conditions: KHM11 myeloma cell viability, CellTiter-Glo ATP luminescence, 48 h; series mostly up to 45.8 µM; further: nearly all actives have a fitted effect of over 35% in size; further: potency means the concentration at half of the fitted maximal effect
Results filed as inconclusive are left out. The source made the active and inactive calls. The call rests on the fitted dose curve; in most records, active means well fitted cell-killing curve with a large enough effect; inconclusive means small, poorly fitted or top-dose-only effect, or effect the other way; inactive means no such curve, though single readings can be large or run the other way.

compound: Cc1ccc(C(=O)Nc2ccc(S(=O)(=O)O)c3cc(S(=O)(=O)O)cc(S(=O)(=O)O)c23)cc1NC(=O)c1cccc(NC(=O)Nc2cccc(C(=O)Nc3cc(C(=O)Nc4ccc(S(=O)(=O)O)c5cc(S(=O)(=O)O)cc(S(=O)(=O)O)c45)ccc3C)c2)c1
Potency: inactive
//
compound: COc1cc2nc(N3CCN(C(=O)c4ccco4)CC3)nc(N)c2cc1OC
Potency: 10.5 µM (active)
//
compound: COc1ccccc1OCCNCC(O)COc1cccc2[nH]c3ccccc3c12 (stereo not drawn)
Potency: inactive
//
compound: O=C(c1ccc(F)cc1)C1CCN(CCn2c(=O)[nH]c3ccccc3c2=O)CC1
Potency: inactive
//
compound: Cn1c(=O)c2c(ncn2C)n(C)c1=O
Potency: inactive
//
compound: CC(=O)OCC(CCn1cnc2cnc(N)nc21)COC(C)=O
Potency: inactive
//
compound: Cc1ccc(-c2cc(C(F)(F)F)nn2-c2ccc(S(N)(=O)=O)cc2)cc1
Potency: inactive
//
compound: CN(C)CCCN1c2ccccc2CCc2ccc(Cl)cc21
Potency: 3.32 µM (active)
//
compound: CC1(C)O[C@H]2CC(=O)OC[C@]23[C@H]2CC[C@@]4(C)[C@H](c5ccoc5)OC(=O)[C@H]5O[C@]54[C@]2(C)C(=O)C[C@@H]13
Potency: inactive
//
compound: CC#C[C@]1(O)CC[C@H]2[C@@H]3CCC4=CC(=O)CCC4=C3[C@@H](c3ccc(N(C)C)cc3)C[C@@]21C
Potency: 1.87 µM (active)
//
compound: Cn1c(=O)c2[nH]cnc2n(C)c1=O
Potency: inactive
//
compound: COc1nc(C)nc(Cl)c1NC1=NCCN1
Potency: inactive
//
compound: CS(=O)(=O)CCNCc1ccc(-c2ccc3ncnc(Nc4ccc(OCc5cccc(F)c5)c(Cl)c4)c3c2)o1
Potency: 4.69 µM (active)
//
compound: CC1COc2c(N3CCN(C)CC3)c(F)cc3c(=O)c(C(=O)O)cn1c23 (stereo not drawn)
Potency: inactive
//
compound: CS(=O)(=O)Nc1ccc([N+](=O)[O-])cc1Oc1ccccc1
Potency: inactive
//
compound: CCC1(C)CC(=O)NC1=O (stereo not drawn)
Potency: inactive
//
compound: Clc1ccccc1C(c1ccccc1)(c1ccccc1)n1ccnc1
Potency: inactive
//
compound: Nc1nc2c(ncn2COC(CO)CO)c(=O)[nH]1
Potency: 20.9 µM (active)
